# targetUnderTest: NMDA receptor (3H-Ro 25-6981 binding site), rat brain membranes (Rattus norvegicus, UniProt P35439+Q00960)
# Construct: Membranes were prepared by homogenization of the whole brain minus cerebellum and medulla oblongata; from tissue; host or cells: rat whole brain minus cerebellum and medulla oblongata, membrane preparation
# Sequence (Q00960 27-1482, other chains not shown): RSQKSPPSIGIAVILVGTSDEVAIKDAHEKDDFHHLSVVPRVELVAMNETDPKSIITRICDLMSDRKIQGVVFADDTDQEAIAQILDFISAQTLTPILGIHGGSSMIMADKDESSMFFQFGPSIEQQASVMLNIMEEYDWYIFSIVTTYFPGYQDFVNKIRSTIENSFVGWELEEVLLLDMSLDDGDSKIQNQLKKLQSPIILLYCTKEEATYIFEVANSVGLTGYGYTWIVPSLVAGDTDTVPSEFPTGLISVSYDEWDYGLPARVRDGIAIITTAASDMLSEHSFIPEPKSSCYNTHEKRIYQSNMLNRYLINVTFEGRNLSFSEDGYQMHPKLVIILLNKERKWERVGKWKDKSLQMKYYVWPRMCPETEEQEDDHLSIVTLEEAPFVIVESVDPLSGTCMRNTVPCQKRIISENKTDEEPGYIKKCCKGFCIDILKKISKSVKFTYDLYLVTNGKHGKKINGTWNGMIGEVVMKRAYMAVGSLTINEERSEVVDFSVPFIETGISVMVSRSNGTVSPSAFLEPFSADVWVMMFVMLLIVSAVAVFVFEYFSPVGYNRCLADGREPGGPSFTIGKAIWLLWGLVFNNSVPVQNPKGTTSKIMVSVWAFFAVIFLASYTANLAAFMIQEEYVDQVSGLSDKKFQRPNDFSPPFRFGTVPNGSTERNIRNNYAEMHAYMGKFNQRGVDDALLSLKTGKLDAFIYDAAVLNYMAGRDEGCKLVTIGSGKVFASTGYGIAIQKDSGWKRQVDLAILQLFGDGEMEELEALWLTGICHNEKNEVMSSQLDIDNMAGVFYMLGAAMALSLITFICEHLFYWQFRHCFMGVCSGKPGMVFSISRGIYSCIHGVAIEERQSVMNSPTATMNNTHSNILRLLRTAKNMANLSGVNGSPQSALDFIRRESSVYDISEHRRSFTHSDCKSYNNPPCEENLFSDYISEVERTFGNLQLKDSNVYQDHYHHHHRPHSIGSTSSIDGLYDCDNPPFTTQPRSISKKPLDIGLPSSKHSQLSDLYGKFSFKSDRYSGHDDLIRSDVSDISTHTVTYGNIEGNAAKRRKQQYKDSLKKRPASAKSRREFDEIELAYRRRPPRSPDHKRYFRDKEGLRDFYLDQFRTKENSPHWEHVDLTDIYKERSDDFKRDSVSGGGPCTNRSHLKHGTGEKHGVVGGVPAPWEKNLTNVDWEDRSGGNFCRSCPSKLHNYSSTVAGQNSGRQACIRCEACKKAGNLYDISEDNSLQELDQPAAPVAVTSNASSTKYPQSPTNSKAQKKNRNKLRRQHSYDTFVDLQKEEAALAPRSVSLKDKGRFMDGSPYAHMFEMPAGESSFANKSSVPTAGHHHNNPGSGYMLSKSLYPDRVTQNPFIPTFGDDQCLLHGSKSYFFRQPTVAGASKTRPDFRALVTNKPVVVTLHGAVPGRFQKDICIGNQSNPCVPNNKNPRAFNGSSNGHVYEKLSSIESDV
# measurementDescription: 3H-Ro 25-6981 binding
# cond: displacement of 5 nM 3H-Ro 25-6981, rat whole brain minus cerebellum and medulla oblongata membranes, 2 hours at 4° C.; read-out: IC50
pIC50: −log10 of the molar value.
recordedEndpoint: pIC50

As a guide, the following entries are already answered.
Input "Oc1ccc(S[C@@H]2CCN(CCCCc3ccccc3)C2)cc1" . Output pIC50: 7.70

Input O=S(=O)(c1ccc(O)cc1)C1CCN([C@H]2CC[C@@H](c3ccccc3)CC2)C1 (relative stereo) . Output pIC50: 7.23

Input O=S(=O)(c1ccc(O)cc1)[C@H]1CCN(CC(O)C2Cc3ccccc3C2)C1 (mixture of isomers) . Output pIC50: 7.51

Input "Oc1ccc(S[C@H]2CCN(CCCCc3ccccc3)C2)cc1" . Output pIC50: 8.05

Input "[O-][S@@+](c1ccc(O)cc1)[C@H]1CCN(C[C@@H](F)CCc2ccccc2)C1" . Output pIC50: 7.22

(P) O=S(=O)(c1ccc(O)cc1)C1CCN(C2CC(Cc3ccccc3)C2)C1 (stereo not shown)
(Q) O=S(=O)(c1ccc(O)cc1)[C@@H]1CN(CCCCc2ccccc2)C[C@H]1O (racemic)
[ask] Kindly identify which of P and Q has the larger recorded pIC50 value. API: response body contains the label of the selected item.
[reply] P
(P: 7.40, Q: 7.10)
